These data points were gathered from ChEMBL document CHEMBL1201862.

Tested on: SNB-19
Experiment: NCI tumour cell line growth inhibition, 48 h
The source made the active and inactive calls. Cut-off read from the data, not from the text of the source: active = GI50 up to about 1.1 µM and inactive = higher. Where a SMILES comes first, the peptide text is derived from it. The star is where a group is joined. Cbz = O=C(OCc1ccccc1)*
Reported Metric: GI50

Past entries and their recorded results:
Compound	GI50
Cc1ccc(C(=O)CCC2C(=O)CC(C)(C)CC2=O)cc1	> 100 µM (inactive)
CS(=O)(=O)OCCN(CCOS(C)(=O)=O)c1ccc(/C=N/c2ccc3oc(=O)ccc3c2)cc1	8.97 µM (inactive)
COc1ccc(/C=C/C(=O)C(C)(C)Br)cc1	25.8 µM (inactive)

I'm hoping you can list GI50 for every compound here, please.
1. O=C1Cc2c(-c3ccccc3)cc(-c3ccccc3)nc2-c2ccccc2N1
2. CN(C)C(=S)Nc1nnc(NC23CC4CC(CC(C4)C2)C3)s1.[O-][Cl+3]([O-])([O-])O
3. S=C(N/N=C\c1ccccn1)N(Cc1ccccn1)Cc1ccccn1
4. O=c1cc(NNc2cccc(F)c2)[nH]c(=O)[nH]1
5. CCOC(=O)CCC(NC(=O)C(Cc1ccccc1)NC(=O)OCc1ccccc1)C(=O)OCC (stereo not drawn) (Cbz-Phe-Glu(OEt)-OEt; configuration not given here)
6. CN(C)c1ccc(/N=N\c2cccc3ccoc23)cc1
7. O=C(O)C1(C(=O)O)CC1

2.78 µM (inactive)
18.3 µM (inactive)
3.47 µM (inactive)
> 100 µM (inactive)
19.7 µM (inactive)
> 100 µM (inactive)
> 100 µM (inactive)
